Listed here are substances together with their documented Affinity.
- Test system: TRPM8 protein and TRPM8 related peptide fragments
- Experiment Notes: Antibody identification of monoclonal antibodies
- Format: binding, human
- Assay Conditions: monoclonal antibody against the named antigen
- Description: Freund's adjuvant is adopted for respectively immunizing the mice. 2. Detection of TRPM8 antibody: utilizing a radioimmunoassay (RIA) method.
Ends that are not written are not given here. * marks the point of attachment. Biotin = O=C1N[C@H]2[C@H](CS[C@H]2CCCCC(=O)*)N1

Consider the substance Biotin-DGTTYDFAHCTFTGNESKPL [T-3] . State its measured Affinity. 10^12 L/mol

Consider the substance CEMDI ELHDV SPITRH (CEMDIELHDVSPITRH; HUMAN) [T-12] . State its measured Affinity. 10^12 L/mol

Consider the substance EMDIELHDVSPITRH (HUMAN) [T-18] . State its measured Affinity. 10^12 L/mol

Consider the substance Biotin-VSRNLGPKIIMLQ [T-4] . State its measured Affinity. 10^12 L/mol

Consider the substance NRRND TLDST RTLYSS (NRRNDTLDSTRTLYSS; HUMAN) [T-10] . State its measured Affinity. 10^12 L/mol

Consider the substance Biotin-FKNEDNETLAWEGVMKENYL [T-2] . State its measured Affinity. 10^12 L/mol

Consider the substance Biotin-DEVRQWYVNGVNYFTD [T-5] . State its measured Affinity. 10^12 L/mol

Data provenance is patent US11175289B2.
